Tested on: Enterococcus faecalis
Test: Minimum bactericidal concentration against Enterococcus faecalis
Type: functional
Value kind: MBC (µM)
Give bare numbers, in µM.

* CCCCCCCCCCCCCCC(COC(=O)C[N+](C)(C)C)COC(=O)C[N+](C)(C)C | 12
* CCCCCCCCCCCCCCC(COC(=O)C[n+]1ccccc1)(COC(=O)C[n+]1ccccc1)COC(=O)C[n+]1ccccc1 | 4.9
* CCCCCCCCCCCCCCCCOC(=O)C[N+](C)(C)C | 22.5
* CCCCCCCCCCCCCCC(COC(=O)C[N+](C)(C)C)(COC(=O)C[N+](C)(C)C)COC(=O)C[N+](C)(C)C | 9
* CCCCCCCCCCCCCCC(COC(=O)C[n+]1ccccc1)COC(=O)C[n+]1ccccc1 | 10.4

Now, please, on to the next molecule.
State recorded MBC with Enterococcus faecalis, entry CCCCCCCCCCCCCCCC[n+]1ccccc1 [CETYLPYRIDINIUM BROMIDE] , no comment.
16.3
